Molecular target: full-length HTRA1 (HTRA1 (full)) (human, UniProt Q92743 23-480)
Sequence (Q92743 23-480): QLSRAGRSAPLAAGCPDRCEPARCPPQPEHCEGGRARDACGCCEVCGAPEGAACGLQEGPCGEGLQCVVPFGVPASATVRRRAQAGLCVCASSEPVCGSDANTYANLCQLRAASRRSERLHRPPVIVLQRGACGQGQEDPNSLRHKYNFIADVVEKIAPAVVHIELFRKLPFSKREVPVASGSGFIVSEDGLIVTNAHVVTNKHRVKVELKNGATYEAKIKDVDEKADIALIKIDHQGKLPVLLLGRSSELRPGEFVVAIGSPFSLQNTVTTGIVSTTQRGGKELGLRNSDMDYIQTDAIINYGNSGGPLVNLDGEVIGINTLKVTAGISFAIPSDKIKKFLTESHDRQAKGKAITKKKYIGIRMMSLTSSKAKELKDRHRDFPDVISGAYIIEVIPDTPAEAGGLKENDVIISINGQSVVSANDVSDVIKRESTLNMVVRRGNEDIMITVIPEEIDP
Experiment: cell-based or functional assay
rule met if IC50 (nM) for HTRA1 (full); decomposition rate of substrate peptide H2-Opt is below 40 nM. rule not met if not; exact matches included in rule not met.

{"BINDER": "peptide H228 (designed binder) DPQFGLFSKYRTPNCGHYNGWACQAFFEPVCGSDMSTYANECTLCMKIREGGHNIKIIRNGPCGG", "CLASS ASSIGNMENT": "rule met"}
{"BINDER": "peptide H218 (designed binder) DPQFGLFSKYRTPNCLKSEGMACYAYYEPVCGSDMSTYANECTLCMKIREGGHNIKIIRNGPCGG", "CLASS ASSIGNMENT": "rule not met"}
{"BINDER": "peptide H308 (designed binder) DPQFGLFSKYRTPNCSDHAGMACVALYEPVCGSDMSTYENECVLCMKIREGGHNIKIIRNGPCGG", "CLASS ASSIGNMENT": "rule met"}
{"BINDER": "peptide M7 (designed binder) DPQFGLFSKYRTPNCSDHAGMACVAFYEPVCGSDMSTYANECTLCMKIREGGHNIKIIRNGPCGG", "CLASS ASSIGNMENT": "rule met"}
{"BINDER": "peptide H223 (designed binder) DPQFGLFSKYRTPNCTMDMGMACWAFYEPVCGSDMSTYANECTLCMKIREGGHNIKIIRNGPCGG", "CLASS ASSIGNMENT": "rule not met"}
